# Tested on: Escherichia coli
# protocol.text: Antimicrobial activity against Escherichia coli DH5[alpha] harboring pEK516 plasmid encoding CTX-M extended-spectrum beta-lactamases
# Type: functional
Entries whose MIC is below 8 µg/mL take 1; entries at or above 8 µg/mL take -1.

- CO/N=C(\C(=O)N[C@@H]1C(=O)N2C(C(=O)O)=C(COC(C)=O)CS[C@H]12)c1csc(N)n1: -1
- COc1cc(Cc2cnc(N)nc2N)cc(OC)c1OC: 1
- CN(C)[C@@H]1C(O)=C(C(N)=O)C(=O)[C@@]2(O)C(O)=C3C(=O)c4c(O)cccc4[C@@](C)(O)[C@H]3C[C@@H]12: -1
- CC1(C)S[C@@H]2[C@H](NC(=O)[C@H](N)c3ccccc3)C(=O)N2[C@H]1C(=O)O: -1
- C[C@H]1[C@H](NC(=O)/C(=N\OC(C)(C)C(=O)O)c2csc(N)n2)C(=O)N1S(=O)(=O)O: -1
- CCN1CCN(C(=O)N[C@@H](C(=O)N[C@@H]2C(=O)N3[C@@H]2SC(C)(C)[C@@H]3C(=O)O)c2ccccc2)C(=O)C1=O: -1
- CO/N=C(\C(=O)N[C@@H]1C(=O)N2C(C(=O)[O-])=C(C[n+]3cccc4c3CCC4)CS[C@H]12)c1csc(N)n1: -1
- CN(C)c1ccc(O)c2c1C[C@H]1C[C@H]3[C@H](N(C)C)C(O)=C(C(N)=O)C(=O)[C@@]3(O)C(O)=C1C2=O: 1
- O=C(N[C@H](CO)[C@H](O)c1ccc([N+](=O)[O-])cc1)C(Cl)Cl: 1
- CN[C@@H]1[C@H](O[C@H]2[C@H](O[C@H]3[C@H](O)[C@@H](O)[C@H](N=C(N)N)[C@@H](O)[C@@H]3N=C(N)N)O[C@@H](C)[C@]2(O)C=O)O[C@@H](CO)[C@H](O)[C@H]1O: 1
- NCC[C@H](O)C(=O)N[C@@H]1C[C@H](N)[C@@H](O[C@H]2O[C@H](CN)[C@@H](O)[C@H](O)[C@H]2O)[C@H](O)[C@H]1O[C@H]1O[C@H](CO)[C@@H](O)[C@H](N)[C@H]1O: 1
- CC(C)(O/N=C(\C(=O)N[C@@H]1C(=O)N2C(C(=O)[O-])=C(C[n+]3ccccc3)CS[C@H]12)c1csc(N)n1)C(=O)O: -1
- Cc1cc(NS(=O)(=O)c2ccc(N)cc2)no1: 1
